test_protocol: FRG1 promoter luciferase signal modulators, primary screen, FRG1 inhibition for FSHD, cell-based, C2C12 myotubes, firefly/Renilla luciferase, luminescence (AID 1084)
stated_conditions: higher = more signal, called active from +8 up or from −8 down
Output t for z-score not less than 0.2; output f otherwise.

These recorded examples may help you get a feel for the data.
[
  {
    "compound": "CN1C=C(C(=O)OCCS(C)(=O)=O)C(C(=O)OCCS(C)(=O)=O)=CC(CCCO)=CC1c1ccc(CN2CCCC2)cc1 (stereo not drawn)",
    "answer_label": "t"
  },
  {
    "compound": "C=CCC(OC(C)=O)[C@@H]1[C@@H](N(Cc2ccc(-c3ccccc3)cc2)C(=O)c2ccc(C)cc2)c2cc(OCCCO)ccc2N1C(=O)c1ccc2ccccc2c1 (stereo partly drawn)",
    "answer_label": "f"
  },
  {
    "compound": "O=C1O[C@H](c2ccccc2)[C@H](c2ccccc2)N2[C@H]1[C@@H](C(=O)N1CCN(c3ncccn3)CC1)[C@]1(C(=O)Nc3ccccc31)[C@H]2c1ccc(O)cc1",
    "answer_label": "t"
  },
  {
    "compound": "C=CCC(OC(C)=O)[C@@H]1[C@@H](N(Cc2ccc(-c3cccc(C(F)(F)F)c3)o2)C(=O)Cc2ccc(F)cc2)c2cc(OCCCO)ccc2N1C(=O)c1ccc2ccccc2n1 (stereo partly drawn)",
    "answer_label": "f"
  },
  {
    "compound": "COC(=O)[C@@]1(CCS(=O)(=O)c2ccccc2)N=C(c2ccc(OCCCO)cc2)O[C@H]1c1ccccc1N=[N+]=[N-]",
    "answer_label": "f"
  }
]

query: Would you say `O=c1cccc(-c2ccccc2C(F)(F)F)o1` shows z-score at minimum 0.2?
result: t

query: Would you say `COCCOC(=O)N1C(=O)[C@@]2(c3cc(C#CCCO)ccc31)[C@H](C(=O)N1CCc3cc(OC)c(OC)cc3C1)[C@H]1C(=O)O[C@H](c3ccccc3)[C@H](c3ccccc3)N1[C@@H]2c1ccccc1OCCO` shows z-score at minimum 0.2?
result: f

query: Would you say `NCCCC[C@@H]1NC(=O)[C@H]2C[C@@H](C(=O)O)[C@@H](c3cccc(OCCO)c3)N2C1=O` shows z-score at minimum 0.2?
result: t

query: Would you say `C[N+](C)(C)CCCC[C@@H]1NC(=O)[C@H]2C[C@@H](C(=O)NCCCCCNC(=O)CS)[C@@H](c3ccc(O)cc3)N2C1=O` shows z-score at minimum 0.2?
result: f

query: Would you say `COCCCN1C(=O)[C@@]2(Cc3ccccc31)c1ccccc1C(=O)N(Cc1ccccc1OC)[C@H]2c1ccc(CO)cc1` shows z-score at minimum 0.2?
result: f

query: Would you say `COCCOC(=O)N1C(=O)[C@@]2(c3cc(C#CC4(O)CCCCCC4)ccc31)[C@H](C(=O)N1CCc3cc(OC)c(OC)cc3C1)[C@H]1C(=O)O[C@H](c3ccccc3)[C@H](c3ccccc3)N1[C@@H]2c1ccc(O)cc1` shows z-score at minimum 0.2?
result: f

query: Would you say `O=C1O[C@H](c2ccccc2)[C@H](c2ccccc2)N2[C@H]1[C@@H](C(=O)NC[C@H](O)c1ccccc1)[C@]1(C(=O)Nc3ccc(C#CCCO)cc31)[C@H]2c1ccccc1OCCO` shows z-score at minimum 0.2?
result: f

====

Entries annotated with measured composite z-score
tgt: Torsin-1A-interacting protein 2 (Homo sapiens)
test_protocol: LULL1 binders on small-molecule microarray, primary screen, cell lysate, human LULL1 lysate, 635/667 nm fluorescence (AID 1092);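 also: probe is lysate of COS7 cells overexpressing human LULL1; score merges per-feature 667 nm fluorescence with signal-to-noise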
stated_conditions: hLULL1 lysate binding, 635 nm fluorescence, higher = more signal
I'd appreciate a reply containing only the number, no unit.

Some compounds with recorded composite z-score:
[
  {
    "compound": "C[C@@H](OCc1ccccc1)C1NC(=O)[C@@]23C(=O)N[C@@H](Cc4ccccc4)C2[C@H](C)[C@@]2(C)O[C@H]2C3/C=C/C/C=C\\CNC(=O)[C@H](Cc2ccccc2)NC1=O (some centres undefined)",
    "composite z-score": 0.956
  },
  {
    "compound": "COc1ccc([Si](C)(C)[C@H]2[C@H](CCO)O[C@@]3(C(=O)N(Cc4ccc(N5CCOC5=O)cc4)c4ccccc43)[C@@H]2C)cc1",
    "composite z-score": 1.27
  },
  {
    "compound": "CC(=O)c1ccc(C(O)C2C=CC3C(=O)NC(=O)C3N2Nc2ccc(Cl)cc2Cl)cc1 (centres undefined)",
    "composite z-score": 3
  },
  {
    "compound": "COCCOC(=O)N1C(=O)[C@@]2(c3cc(C#CCC(C(=O)OC)C(=O)OC)ccc31)[C@H](c1ccc(OCCO)cc1)N1[C@H](c3ccccc3)[C@H](c3ccccc3)OC(=O)[C@H]1[C@@H]2C(=O)N1CCCCCCC1",
    "composite z-score": 3.6
  },
  {
    "compound": "C=CCNC(=O)[C@H]1[C@@H]2C(=O)O[C@@H](c3ccccc3)[C@@H](c3ccccc3)N2[C@@H](c2ccccc2OCCO)[C@]12C(=O)N(C(=O)OCCOC)c1ccccc12",
    "composite z-score": 2.78
  },
  {
    "compound": "C[C@H]1C2[C@H](Cc3ccccc3)NC(=O)[C@]23C(=O)NCC(=O)N2CCC[C@H]2C(=O)NC/C=C\\C/C=C/C3[C@@H]2O[C@]12C (some centres undefined)",
    "composite z-score": -0.691
  },
  {
    "compound": "COc1ccc(CCNC(=O)[C@@]2(Sc3ccc(C)cc3)CC(=O)N(C(C)C)[C@@H]2c2ccc(CO)cc2)cc1",
    "composite z-score": 2.09
  },
  {
    "compound": "CCCCC(O)C1C=CC2C(=O)NC(=O)C2N1Nc1ccccn1 (centres undefined)",
    "composite z-score": 0.0273
  },
  {
    "compound": "C=C(/C(=C/C[C@H](OC(=O)c1ccncc1)c1ccccc1OCCO)c1cc(C(=O)OC)ccc1OC)C(C)C",
    "composite z-score": 2.74
  },
  {
    "compound": "C[N+](C)(C)CCCC[C@@H]1NC(=O)[C@H]2C[C@@H](C(=O)NCCCCCNC(=O)CS)[C@@H](c3ccc(O)cc3)N2C1=O",
    "composite z-score": 1.91
  }
]

query: Return reported composite z-score. Input compound: `COCC(=C=CC[C@@H](O)c1ccc(OCCO)cc1)C[C@@H](O)COCc1ccccc1`
result: 3.16

query: Return reported composite z-score. Input compound: `C=CCN1C(=O)[C@]2(O[C@H](CCn3cc([C@H](O)c4ccccc4)nn3)[C@@H]([Si](C)(C)c3ccc(OC)cc3)[C@@H]2C)c2cc(N3C(=O)c4cccc5cccc3c45)ccc21`
result: 0.6

query: Return reported composite z-score. Input compound: `COCCOC(=O)N1C(=O)[C@@]2(c3cc(C#Cc4ccc(OC)cc4)ccc31)[C@H](C(=O)N1CCCCCCC1)[C@H]1C(=O)O[C@H](c3ccccc3)[C@H](c3ccccc3)N1[C@@H]2c1ccccc1OCCO`
result: 3.66

query: Return reported composite z-score. Input compound: `[N-]=[N+]=NCc1ccccc1[C@@H]1OC(c2ccc(OCCCO)cc2)=N[C@]1(Cc1ccccc1)C(=O)NCc1ccccc1`
result: 3.12
